# System: Trypanosoma brucei brucei
# procedure_summary: Antitrypanosomal activity against Trypanosoma brucei brucei
# Assay type: functional, organism-based
The following molecules are shown together with reported pIC50 values.
// scale note: pIC50 = -log10(conc_M); give the bare number

c1ccc2c(c1)nc1c3nc4ccccc4c4ccnc(c5nccc2c51)c43 [EILATIN]
5.88

Task item: Name the reported pIC50 value associated with the molecule `c1ccc2c(c1)Nc1cc3cccnc3c3nccc-2c13`
Reply: 7.11

Task item: Can you look up the measured pIC50 of O=C1c2cccnc2-c2nccc3c2c1nc1ccccc13 [ASCIDIDEMIN] for me?
Reply: 7.49
